Recorded measurements of Kd, one per entry
Tested on: HIV gag-pol stem loop
EXPERIMENT: Gel shift, oligonucleotide set binding to HIV gag-pol triple strand
CONDITION NOTES: pH 5, 100 mM NaCl, 2 mM MgCl2, 1 mM spermidine
Kindly provide the numeric value in µM only, without the unit symbol.

Exam item: Kd for C2: RNA oligonucleotide, SEQ ID NO: 12 (CCCUUCCCCUC; RNA, backbone not given here) [Set C2] ?
Marked response: 1

----------
Test system: HIV gag-pol stem loop
EXPERIMENT: Gel shift, oligonucleotide set binding to HIV gag-pol triple strand
CONDITION NOTES: pH 5, 100 mM NaCl, 2 mM MgCl2, 1 mM spermidine
Protocol: Binding to double stranded DNA or RNA is possible by formation of a three stranded complex, with the incoming third strand binding in the major groove of the duplex RNA or DNA. […] Binding to the gag-pol stemloop was measured by gel shift analysis as previously described in Example 8 with the following modifications: the radiolabeled gag-pol RNA was incubated with the oligonucleotide in 100 mM NaCl, 25 mM TRIS acetate (pH 5), 2 mM MgCl2, 1 mM spermidine. […]
MEASUREMENT TYPE: Kd (µM)
Kindly provide the numeric value in µM only, without the unit symbol.

Exam item: Kd for B2: RNA oligonucleotide, SEQ ID NO: 11 (CCCUUCCCGUC; RNA, backbone not given here) [Set B2] ?
Marked response: 10

Exam item: Kd for D2: RNA oligonucleotide, SEQ ID NO: 13 (CCCUUCCCUUC; RNA, backbone not given here) [Set D2] ?
Marked response: 10

Exam item: Kd for A2: RNA oligonucleotide, SEQ ID NO: 10 (CCCUUCCCAUC; RNA, backbone not given here) [Set A2] ?
Marked response: 10

Hello, the source for this data is patent US5698391A, in case you need it.
